Kindly supply the reported Tmax values for the records listed here.
TEST METHOD NOTES: Tmax in C57BL6 mouse at 10 mg/kg, po measured upto 24 hrs by LC-MS/MS analysis
Format: ADME, organism-based
CONDITION NOTES: in vivo
Answer with the figure and its unit, nothing else.

Quick one: Tmax of CC(CC(=O)O)c1ccc(OCc2ccc3c(-c4cc(Cl)c(CO)c(Cl)c4)nn(C4CCCC4)c3c2)cc1 (racemic) ?
30 min

Quick one: Tmax of CC(CC(=O)O)c1ccc(OCc2ccc3c(-c4cc(Cl)c(O)c(Cl)c4)nn(C4CCCC4)c3c2)cc1 (racemic) ?
30 min

====

TEST METHOD NOTES: AUClast in C57BL6 mouse at 30 mg/kg, po measured upto 24 hrs by LC-MS/MS analysis
Assay type: ADME, organism-based
Parameters: dose 30 mg/kg, time < 24 hrs, route po
CONDITION NOTES: in vivo
ASSAY METRIC: AUC(0-t) at 24 h (ng·h/mL)
Give the value, in units of ng·h/mL, as a plain number.

Quick one: AUC(0-t) at 24 h of C[C@@H](CC(=O)O)c1ccc(OCc2cc(F)c3c(-c4cc(Cl)c(CO)c(Cl)c4)nn(C4CCCC4)c3c2)cc1 ?
64100

FYI, the data here is from ChEMBL document CHEMBL5370654.
